Source: patent US9540391B2

# system.name: recombinant sEH (Homo sapiens, UniProt P34913)
# Sequence (P34913 1-555): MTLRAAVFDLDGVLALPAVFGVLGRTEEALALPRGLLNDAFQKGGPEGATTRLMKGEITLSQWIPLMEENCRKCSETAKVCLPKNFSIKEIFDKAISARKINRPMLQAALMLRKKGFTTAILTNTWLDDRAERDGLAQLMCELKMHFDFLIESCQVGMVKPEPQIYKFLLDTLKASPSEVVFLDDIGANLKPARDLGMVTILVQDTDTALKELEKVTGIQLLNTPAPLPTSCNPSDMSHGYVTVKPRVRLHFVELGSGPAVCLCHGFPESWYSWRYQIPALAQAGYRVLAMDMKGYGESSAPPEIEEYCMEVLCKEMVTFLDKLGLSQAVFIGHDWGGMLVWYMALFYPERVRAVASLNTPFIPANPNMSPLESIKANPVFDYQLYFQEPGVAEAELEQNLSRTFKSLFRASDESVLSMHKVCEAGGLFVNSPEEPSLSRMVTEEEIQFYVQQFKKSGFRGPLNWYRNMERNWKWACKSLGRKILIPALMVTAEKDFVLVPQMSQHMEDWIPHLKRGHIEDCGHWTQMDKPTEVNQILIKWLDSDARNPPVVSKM
# experiment.summary: biochemical screening assay for inhibition of soluble epoxide hydrolase (fluorometric, Phome substrate)
Counter-ions that a name gives are not always drawn.
observed.property: IC50 (nM)
State the answer as a number, implicitly in nM.

Lab note: O=C(Nc1ccc(F)cc1)NC1COC2C(CCc3ccccc3)COC12 (stereo not drawn) gave IC50 of 81

Lab note: COCC1(NC(=O)N[C@H]2CO[C@H]3[C@@H]2OC[C@@H]3Oc2cccnc2C)CCCC1 gave IC50 of 144

Lab note: Cc1cnc(S[C@H]2CO[C@H]3[C@@H]2OC[C@@H]3NC(=O)NC2CCCCC2)nc1 [Example 50, hydrochloride] gave IC50 of 10

Lab note: COC(=O)c1cccc(NC(=O)NC2COC3C(C#Cc4ccsc4)COC23)c1 (stereo not drawn) gave IC50 of 16

Lab note: Cc1cccc(NC(=O)NC2COC3C(CCc4ccccc4)COC23)c1 (stereo not drawn) gave IC50 of 84

Lab note: O=C(NC1CCCCC1)N[C@H]1CO[C@H]2[C@@H]1OC[C@@H]2OCC(F)(F)F gave IC50 of 9

====

# system.name: recombinant sEH (Homo sapiens, UniProt P34913)
# experiment.summary: biochemical screening assay for inhibition of soluble epoxide hydrolase (fluorometric, Phome substrate)
pIC50: −log10 of the molar value. Structures can show the parent of a compound that is named as a salt.
// label = y if pIC50 is not less than 7, otherwise n

Record Cc1cc(C)cc(NC(=O)NC2COC3C(C#Cc4ccccc4)COC23)c1 (stereo not shown) ; criterion: pIC50 no lower than 7. Met?
y

Record Cc1ncccc1O[C@H]1CO[C@H]2[C@@H]1OC[C@@H]2NC(=O)NC1(C#N)CCOCC1 ; criterion: pIC50 no lower than 7. Met?
n

Record O=C(NC1CCCCC1)N[C@H]1CO[C@H]2[C@@H]1OC[C@@H]2/C=C\c1ccc2c(c1)OCO2 ; criterion: pIC50 no lower than 7. Met?
y

Record O=C(NC1CCCCC1)N[C@H]1CO[C@H]2[C@@H]1OC[C@@H]2SC1CCCCC1 ; criterion: pIC50 no lower than 7. Met?
y

Record O=C(NC1CCCCC1)N[C@H]1CO[C@H]2[C@@H]1OC[C@@H]2Oc1ccc(-n2cncn2)cc1 [Example 112, trifluoroacetate] ; criterion: pIC50 no lower than 7. Met?
y

Record Cc1ncccc1O[C@H]1CO[C@H]2[C@@H]1OC[C@@H]2NC(=O)NCCN1CCCCC1=O ; criterion: pIC50 no lower than 7. Met?
n
